Experiment: Compound stability test in human blood
Assay type: in vitro ADME
Details: human blood, 37° C., 1 μM, 60 min
ENDPOINT NAME: Remaining Percentages (%)

Check out these entries, answers already filled in.
# MOLECULE, EXPERIMENTAL RESULT
records = [
    ("CCC(C)n1ncn(-c2ccc(N3CCN(c4ccc(OCC5COC(Cn6c[n+](COC(=O)C(C)C)cn6)(c6ccc(Cl)cc6Cl)O5)cc4)CC3)cc2)c1=O.[Cl-] (stereo not drawn)", 8.93),
    ("CCC(C)n1ncn(-c2ccc(N3CCN(c4ccc(OCC5COC(Cn6c[n+](CC)cn6)(c6ccc(Cl)cc6Cl)O5)cc4)CC3)cc2)c1=O.[Cl-] (stereo not drawn)", 8.47),
    ("CCC(C)n1ncn(-c2ccc(N3CCN(c4ccc(OCC5COC(Cn6c[n+](COC(C)=O)cn6)(c6ccc(Cl)cc6Cl)O5)cc4)CC3)cc2)c1=O.[Cl-] (stereo not drawn)", 67.5),
]

(A) CCC(C)n1ncn(-c2ccc(N3CCN(c4ccc(OCC5COC(Cn6c[n+](C)cn6)(c6ccc(Cl)cc6Cl)O5)cc4)CC3)cc2)c1=O.[Cl-] (stereo not drawn)
(B) CCC(C)n1ncn(-c2ccc(N3CCN(c4ccc(OCC5COC(Cn6c[n+](COC(=O)OC(C)C)cn6)(c6ccc(Cl)cc6Cl)O5)cc4)CC3)cc2)c1=O.[Cl-] (stereo not drawn)
Given A and B , report the one with the higher recorded Remaining Percentages (%). Selection: enter the item's label.
A
(A: 12.3%, B: 0.785%)

###

Assay: Compound stability test in human blood
Format: in vitro ADME
Details: human blood, 37° C., 1 μM, 10 min
Description: One (1) mM test compound working solution was prepared in DMSO. One (1) mM propantheline working solution was prepared in acetonitrile, wherein propantheline was used as positive control in this assay. […] Samples were analyzed by LC-MS/MS. […] All calculations were carried out using Microsoft Excel. Peak area ratios were determined from extracted ion chromatograms, and percent compounds remaining at each time point were calculated by the following equation: […]
ENDPOINT NAME: Remaining Percentages (%)

# COMPOUND, MEASUREMENT UNIT, Remaining Percentages (%)
measured = [
    ("CCC(C)n1ncn(-c2ccc(N3CCN(c4ccc(OCC5COC(Cn6c[n+](COC(=O)C(C)(C)C)cn6)(c6ccc(Cl)cc6Cl)O5)cc4)CC3)cc2)c1=O.[Cl-] (stereo not drawn)", "%", 69.4),
    ("CCC(C)n1ncn(-c2ccc(N3CCN(c4ccc(OCC5COC(Cn6c[n+](COC(=O)C(C)C)cn6)(c6ccc(Cl)cc6Cl)O5)cc4)CC3)cc2)c1=O.[Cl-] (stereo not drawn)", "%", 61.0),
    ("CC(C)[N+](C)(CCOC(=O)C1c2ccccc2Oc2ccccc21)C(C)C [Propantheline, propantheline, reference compound]", "%", 85.5),
]

###

Experiment: Compound stability test in human blood
Type: in vitro ADME
Conditions: human blood, 37° C., 1 μM, 60 min
ENDPOINT NAME: Remaining Percentages (%)

# MOLECULE, Remaining Percentages (%)
data = [
    ("CCC(C)n1ncn(-c2ccc(N3CCN(c4ccc(OCC5COC(Cn6c[n+](COC(=O)C(C)(C)C)cn6)(c6ccc(Cl)cc6Cl)O5)cc4)CC3)cc2)c1=O.[Cl-] (stereo not drawn)", 9.76),
]

(P) CCOC(=O)OC[n+]1cnn(CC2(c3ccc(Cl)cc3Cl)OCC(COc3ccc(N4CCN(c5ccc(-n6cnn(C(C)CC)c6=O)cc5)CC4)cc3)O2)c1.[Cl-] (stereo not drawn)
(Q) CC(C)[N+](C)(CCOC(=O)C1c2ccccc2Oc2ccccc21)C(C)C [Propantheline, propantheline, reference compound]
Lab note: check whether P or Q has the lower measured Remaining Percentages (%). Selection: enter the item's label.
Q
